# EXPERIMENTAL PROTOCOL: Metabolic stability in human liver microsomes assessed as intrinsic clearance measured for 30 mins by LC-MS/MS analysis
# Format: ADME, Microsome
# CONDITION LABEL: read-out: CLH

>  <STRUCTURE STRING>
COc1ccc(-c2cccc(-c3cc(OC)c(OC)c(OC)c3)n2)cc1C(=O)NO

>  <ENDPOINT UNIT>
mL/min/kg

>  <CLint scaled>
22.8

$$$$

---

# EXPERIMENTAL PROTOCOL: Oral bioavailability in BALB/c mouse at 50 mg/kg by LC-MS/MS analysis
# Assay type: ADME, organism-based
# CONDITION LABEL: in vivo

>  <STRUCTURE STRING>
CCOC(=O)Nc1nc2ccc(-c3cc(Cc4n[nH]c(=O)c5ccccc45)ccc3F)cc2[nH]1

>  <bioavailability>
31%

$$$$
